- test_system: Transient receptor potential cation channel subfamily V member 1 (Rattus norvegicus, UniProt O35433)
- Sequence (O35433 whole entry): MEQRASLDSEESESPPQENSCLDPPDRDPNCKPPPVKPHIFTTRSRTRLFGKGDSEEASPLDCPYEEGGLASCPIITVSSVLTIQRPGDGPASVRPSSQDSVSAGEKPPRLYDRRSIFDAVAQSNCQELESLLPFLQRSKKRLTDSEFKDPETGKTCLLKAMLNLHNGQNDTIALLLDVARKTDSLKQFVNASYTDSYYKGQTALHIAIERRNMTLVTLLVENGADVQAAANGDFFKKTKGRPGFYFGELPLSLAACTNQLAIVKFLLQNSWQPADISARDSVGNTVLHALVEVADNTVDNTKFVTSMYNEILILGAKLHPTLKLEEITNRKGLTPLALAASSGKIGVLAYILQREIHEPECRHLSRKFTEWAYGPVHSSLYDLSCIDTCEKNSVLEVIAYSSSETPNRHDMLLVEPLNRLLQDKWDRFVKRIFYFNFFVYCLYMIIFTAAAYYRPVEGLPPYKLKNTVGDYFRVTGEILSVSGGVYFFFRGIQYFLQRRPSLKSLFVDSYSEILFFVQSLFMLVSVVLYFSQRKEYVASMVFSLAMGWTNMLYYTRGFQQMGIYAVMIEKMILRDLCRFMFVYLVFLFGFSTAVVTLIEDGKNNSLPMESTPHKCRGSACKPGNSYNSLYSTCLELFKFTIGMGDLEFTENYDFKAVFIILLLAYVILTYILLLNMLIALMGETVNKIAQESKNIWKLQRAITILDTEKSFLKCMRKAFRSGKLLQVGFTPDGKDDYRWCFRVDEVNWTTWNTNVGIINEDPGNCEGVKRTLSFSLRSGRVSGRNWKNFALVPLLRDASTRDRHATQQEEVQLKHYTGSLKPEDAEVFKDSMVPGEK
- protocol_notes: Inhibitory effect on capsaicin (0.5 uM)-induced calcium uptake in rat DRG neurons upon incubation at RT for 10 minutes
reported_endpoint: IC50 (nM)

Below, 3 compounds whose answers are already recorded.
CC(C)(C)c1ccc(CCC/N=C(\S)NCc2ccc(NS(C)(=O)=O)c(F)c2)cc1; 2000
CC(C)(C)c1ccc(CNC(=S)NCc2ccc3nn[nH]c3c2)cc1; 50
CC(C)(C)c1ccc(CNC(=S)NCc2ccc(NS(C)(=O)=O)c([N+](=O)[O-])c2)cc1; 71

P = CC(C)(C)c1ccc(N/C(S)=N/Cc2ccc(NS(C)(=O)=O)c(F)c2)cc1
Q = COCC(=O)Nc1ccc(CNC(=S)NCc2ccc(C(C)(C)C)cc2)cc1F
R = CC(C)(C)c1cc(CNC(=S)NCc2ccc(NS(C)(=O)=O)c(F)c2)cc(C(C)(C)C)c1
S = CC(C)(C)c1ccc(CNC(=S)NCc2ccc(NS(C)(=O)=O)c(I)c2)cc1
Order the records so the highest IC50 appears first and the lowest last. Submit the labels in the order that the ranking request calls for.
Q, P, R, S

---

Measured IC50 accompanies every entry in the list below.
- test_system: UniProt:O35433
- protocol_notes: Inhibitory effect on capsaicin (0.5 uM)-induced calcium uptake in rat DRG neurons upon incubation at RT for 10 minutes

Below, 2 molecules whose answers are already recorded.
CONC(=O)c1cc(C/N=C(\S)NCc2ccc(C(C)(C)C)cc2)ccc1NS(C)(=O)=O; > 30 µM
CCOC(=O)CNc1ccc(CNC(=S)NCc2ccc(C(C)(C)C)cc2)cc1F; > 30 µM

Here is the next item to consider.
// IC50 lookup, key: CC(C)OC(=O)c1cc(C/N=C(\S)NCc2ccc(C(C)(C)C)cc2)ccc1NS(C)(=O)=O
> 30 µM

Numbers sourced from ChEMBL document CHEMBL1140408.
